Measured IC50 accompanies every entry in the list below.
# test target: human TTK (Homo sapiens)
# Construct: Active TTK was purchased from Invitrogen as an amino terminal GST fusion of full length human TTK; purchased Invitrogen
# Sequence (P33981 whole entry, the tested form may be a part): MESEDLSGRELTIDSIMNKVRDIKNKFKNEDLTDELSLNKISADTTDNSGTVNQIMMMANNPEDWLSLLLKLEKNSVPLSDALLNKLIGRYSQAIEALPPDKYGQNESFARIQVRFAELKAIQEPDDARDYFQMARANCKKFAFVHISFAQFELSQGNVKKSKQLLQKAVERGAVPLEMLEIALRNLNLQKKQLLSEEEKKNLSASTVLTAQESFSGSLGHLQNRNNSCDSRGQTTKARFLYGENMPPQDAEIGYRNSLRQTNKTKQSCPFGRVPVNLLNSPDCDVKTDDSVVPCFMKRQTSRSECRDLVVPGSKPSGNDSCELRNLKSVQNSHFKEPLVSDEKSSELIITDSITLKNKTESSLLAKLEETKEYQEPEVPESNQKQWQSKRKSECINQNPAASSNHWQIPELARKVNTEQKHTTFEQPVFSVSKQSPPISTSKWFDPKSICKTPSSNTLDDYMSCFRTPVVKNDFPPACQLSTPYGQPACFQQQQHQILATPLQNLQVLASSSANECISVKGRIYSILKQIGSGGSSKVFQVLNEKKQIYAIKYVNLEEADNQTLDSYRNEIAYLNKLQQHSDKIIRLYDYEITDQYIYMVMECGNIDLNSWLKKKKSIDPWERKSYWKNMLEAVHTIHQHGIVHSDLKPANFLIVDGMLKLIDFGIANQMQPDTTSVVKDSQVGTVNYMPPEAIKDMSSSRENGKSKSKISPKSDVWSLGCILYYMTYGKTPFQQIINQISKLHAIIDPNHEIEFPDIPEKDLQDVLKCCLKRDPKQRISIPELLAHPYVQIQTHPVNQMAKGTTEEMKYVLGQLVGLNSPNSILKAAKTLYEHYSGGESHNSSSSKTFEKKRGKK
# run description: TTK inhibition assay (indirect ELISA)
# Type: biochemical
# setup conditions: 16 μM ATP (Sigma cat# A7699); read-out: TTK IC50 Range (denoted with an asterisk)

test smiles	test target	IC50
O=C(NC1CC1)c1ccc(-c2cnn3c(NCCCN4CCOCC4)nc(Oc4ccccc4)nc23)cc1	human TTK (Homo sapiens)	< 100 nM
Cc1cc(-c2cnn3c(NCC4CCOCC4)nc(Oc4cccc(F)c4)nc23)ccc1C(=O)NC1CC1	human TTK (Homo sapiens)	< 100 nM
CC(C)C(=O)Nc1ccc(-c2cnn3c(NCC4CCOCC4)nc(Oc4ccccc4)nc23)cc1	human TTK (Homo sapiens)	> 500 nM
Cc1cc(-c2cnn3c(NCC4CCOCC4)nc(NC4CCCCC4)nc23)ccc1C(=O)NC1CC1	human TTK (Homo sapiens)	< 100 nM
COc1ccc(Oc2nc(NCC3CCOCC3)n3ncc(-c4ccc(C(=O)NC5CC5)c(C)c4)c3n2)c(F)c1	human TTK (Homo sapiens)	< 100 nM
Cc1cc(-c2cnn3c(NCC4CCOCC4)nc(Nc4ccccc4)nc23)ccc1C(=O)NC1CC1	human TTK (Homo sapiens)	< 100 nM
COCCNc1nc(Oc2ccccc2)nc2c(-c3ccc(C(=O)NC4CC4)cc3)cnn12	human TTK (Homo sapiens)	< 100 nM
CC(C)NC(=O)c1ccc(-c2cnn3c(NCC4CCOCC4)nc(Oc4ccccc4)nc23)cc1	human TTK (Homo sapiens)	100 to 500 nM
Cc1cc(-c2cnn3c(NCC4CCOCC4)nc(Oc4ccccc4)nc23)ccc1NC(=O)C1CC1	human TTK (Homo sapiens)	> 500 nM
CN(c1nc(NCC2CCOCC2)n2ncc(-c3ccc(C(=O)NC4CC4)c(F)c3)c2n1)C1CCCCC1	human TTK (Homo sapiens)	< 100 nM
Cc1cc(-c2cnn3c(NCC4CCOCC4)nc(NC4CCCC4)nc23)ccc1NC(=O)C1CC1	human TTK (Homo sapiens)	> 500 nM
Cc1cc(-c2cnn3c(NCCN4CCOCC4)nc(Oc4cccc(F)c4F)nc23)ccc1C(=O)NC1CC1	human TTK (Homo sapiens)	< 100 nM
CC(C)NC(=O)c1ccc(-c2cnn3c(NCC4CCOCC4)nc(OC4CCCC4)nc23)cc1	human TTK (Homo sapiens)	100 to 500 nM
Cc1cc(-c2cnn3c(NCC4CCOCC4)nc(NC4CCOCC4)nc23)ccc1C(=O)NC1CC1	human TTK (Homo sapiens)	< 100 nM
Cc1cc(-c2cnn3c(NCCN4CCOCC4)nc(Oc4cccc(F)c4)nc23)ccc1C(=O)NC1CC1	human TTK (Homo sapiens)	< 100 nM
Cc1cc(-c2cnn3c(NC[C@H]4CC[C@@H](O)CC4)nc(Oc4cccc(F)c4)nc23)ccc1C(=O)NC1CC1	human TTK (Homo sapiens)	< 100 nM
